B1: EHEE_rd4_0726 (parent)
chain: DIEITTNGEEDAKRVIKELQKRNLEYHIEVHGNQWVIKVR

variants of: B1; experiment: folding stability dG (cDNA display proteolysis); higher = more stable; settings: PBS, room temperature
// folding stability dG lookup, one value per entry
Write down the numeric answer in kJ/mol and omit the unit.

E10M    8.57
R14E    8.55

# return recorded folding stability dG for input H27A
9.78

# return recorded folding stability dG for input I4H
2.92

# return recorded folding stability dG for input E25L
10.9
